target: c-Src SH2; experiment: SH2 binding enrichment of the phosphorylated peptide, bacterial display (enrichment ratio); higher = better substrate or ligand; peptides without Tyr show the background;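 further: peptide library displayed on the E. coli surface as eCPX fusions, selected cells deep-sequenced, score is each peptide's frequency after selection divided by its frequency in the input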
Answer each item with its documented SH2 binding enrichment.

Tested on c-Src SH2, the item MGGSLYFSFPD [HIKESHI_Y55_V54L_YF] showed SH2 binding enrichment equal to 0.444

Tested on c-Src SH2, the item GHNNVYISEHV [GRIN2A_Y1423_D1421N] showed SH2 binding enrichment equal to 0.469

Tested on c-Src SH2, the item QLATEYVFSDF [PANX1_Y10] showed SH2 binding enrichment equal to 0.511

Tested on c-Src SH2, the item EILLSYPRTGF [TGM1_Y365_L366P_YF] showed SH2 binding enrichment equal to 0.528

Tested on c-Src SH2, the item EQMLEYMGQLQ [CFAP45_Y289_E291G] showed SH2 binding enrichment equal to 0.42

Tested on c-Src SH2, the item RMSSSYPTGLA [ADM_Y52] showed SH2 binding enrichment equal to 0.422

Tested on c-Src SH2, the item GSETPYMDRTP [ESS2_Y335_V336M] showed SH2 binding enrichment equal to 0.49

Tested on c-Src SH2, the item ARTNEYKIIRS [INA_Y87_T92S] showed SH2 binding enrichment equal to 0.514

Tested on c-Src SH2, the item RGMVMYTSKDR [ZG16B_Y136] showed SH2 binding enrichment equal to 0.648

Tested on c-Src SH2, the item ANNPLYKEATS [ITGB3_Y773] showed SH2 binding enrichment equal to 0.53

Tested on c-Src SH2, the item AKVKPYINGTS [IBTK_Y1064_V1065I] showed SH2 binding enrichment equal to 0.737

Tested on c-Src SH2, the item MSSHHCDYKKY [ZNF445_Y428_Y428C] showed SH2 binding enrichment equal to 0.553

Tested on c-Src SH2, the item MRALIYNSSTV [PLEKHA7_Y243_A248V] showed SH2 binding enrichment equal to 0.463

Tested on c-Src SH2, the item WSQAMYPDLGP [STARD8_Y330_R327Q] showed SH2 binding enrichment equal to 0.774

Tested on c-Src SH2, the item ASQEEYSAMRD [KRAS_Y64_G60S] showed SH2 binding enrichment equal to 0.77

Tested on c-Src SH2, the item FSTDFYRVGGH [NTRK2_Y707_YF] showed SH2 binding enrichment equal to 0.56
